Test system: melanocyte-stimulating hormone receptor (Rana pipiens)
experimentDescription: Maximum agonist response for frog skin melanocortin 1 receptor (MC1R); No activity up to 10^-5M
measurementName: EC50

* C[C@@H](O)[C@H](NC(=O)[C@@H]1CSSC[C@H](NC(=O)[C@H](N)Cc2ccccc2)C(=O)N[C@@H](Cc2c[nH]cn2)C(=O)N[C@@H](Cc2ccc(I)cc2)C(=O)N[C@@H](CCCN=C(N)N)C(=O)N[C@H](Cc2c[nH]c3ccccc23)C(=O)N1)C(N)=O | Not Active
* C[C@@H](O)[C@H](NC(=O)[C@H]1NC(=O)[C@H](Cc2c[nH]c3ccccc23)NC(=O)[C@H](CCCN=C(N)N)NC(=O)[C@@H](Cc2c[nH]c3ccccc23)NC(=O)[C@H](Cc2ccccc2)NC(=O)[C@@H](NC(=O)[C@H](N)Cc2ccccc2)CSSC1(C)C)C(N)=O | Not Active

====

Each entry below lists one item and its recorded pEC50 value.
targetSystem: Melanocortin receptor 5 (Mus musculus, UniProt P41149)
Sequence (P41149 whole entry): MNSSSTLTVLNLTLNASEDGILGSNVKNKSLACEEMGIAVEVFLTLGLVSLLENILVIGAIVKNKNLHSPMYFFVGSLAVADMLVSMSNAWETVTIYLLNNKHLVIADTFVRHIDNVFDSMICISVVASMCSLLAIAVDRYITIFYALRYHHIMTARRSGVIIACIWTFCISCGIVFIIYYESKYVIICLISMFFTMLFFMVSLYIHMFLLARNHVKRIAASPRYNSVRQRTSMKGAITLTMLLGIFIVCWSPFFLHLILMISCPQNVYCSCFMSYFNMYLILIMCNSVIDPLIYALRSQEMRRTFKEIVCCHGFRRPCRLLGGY
experimentDescription: Maximum agonist response for mouse melanocortin 5 receptor (MC5R)
Assay type: functional
pEC50: −log10 of the molar value.
measurementName: pEC50

- C[C@@H](O)[C@H](NC(=O)[C@H]1CSSC(C)(C)[C@H](NC(=O)[C@H](N)Cc2ccccc2)C(=O)N[C@@H](Cc2c[nH]cn2)C(=O)N[C@@H](Cc2ccccc2)C(=O)N[C@@H](CCCN)C(=O)N[C@H](Cc2c[nH]c3ccccc23)C(=O)N1)C(N)=O: 7.34
- C[C@@H](O)[C@H](NC(=O)[C@H]1CSSC[C@H](NC(=O)[C@H](N)Cc2ccccc2)C(=O)N[C@@H](Cc2c[nH]cn2)C(=O)N[C@@H](Cc2ccccc2)C(=O)N[C@@H](CCCN=C(N)N)C(=O)N[C@H](Cc2c[nH]c3ccccc23)C(=O)N1)C(N)=O: 9.92
- C[C@@H](O)[C@H](NC(=O)[C@H]1CSSC[C@H](NC(=O)[C@H](N)Cc2ccccc2)C(=O)N[C@H](Cc2cnc[nH]2)C(=O)N[C@H](Cc2ccccc2)C(=O)N[C@@H](CCCNC(=N)N)C(=O)N[C@H](Cc2c[nH]c3ccccc23)C(=O)N1)C(N)=O: 10.00

====

Test system: melanocyte-stimulating hormone receptor (Rana pipiens)
experimentDescription: Inhibition of 1 nM alpha melanocortin stimulating hormone from frog skin; No activity up to 10^-5 M.
measurementName: IC50

• C[C@@H](O)[C@H](NC(=O)[C@H]1NC(=O)[C@H](Cc2c[nH]c3ccccc23)NC(=O)[C@H](CCCN=C(N)N)NC(=O)[C@@H](Cc2ccccc2)NC(=O)[C@H](Cc2c[nH]cn2)NC(=O)[C@@H](NC(=O)[C@H](N)Cc2ccccc2)CSSC1(C)C)C(N)=O = Not Active
• C[C@@H](O)[C@H](NC(=O)[C@@H]1CSSC[C@H](NC(=O)[C@H](N)Cc2ccccc2)C(=O)N[C@@H](Cc2c[nH]cn2)C(=O)N[C@@H](Cc2cccc3ccccc23)C(=O)N[C@@H](CCCN=C(N)N)C(=O)N[C@H](Cc2c[nH]c3ccccc23)C(=O)N1)C(N)=O = Not Active
• C[C@@H](O)[C@H](NC(=O)[C@@H]1CCSSC[C@H](NC(=O)[C@H](N)Cc2ccccc2)C(=O)N[C@@H](Cc2c[nH]cn2)C(=O)N[C@H](Cc2ccccc2)C(=O)N[C@@H](CCCN=C(N)N)C(=O)N[C@@H](Cc2c[nH]c3ccccc23)C(=O)N1)C(N)=O = Not Active
• C[C@@H](O)[C@H](NC(=O)[C@H]1CSSC[C@H](NC(=O)[C@@H](N)Cc2ccccc2)C(=O)N[C@@H](Cc2c[nH]cn2)C(=O)N[C@H](Cc2ccccc2)C(=O)N[C@@H](CCCN=C(N)N)C(=O)N[C@H](Cc2c[nH]c3ccccc23)C(=O)N1)C(N)=O = Not Active

Sourced from ChEMBL document CHEMBL1149102
